target: T1, Human C5 (human, UniProt P01031 19-1676); test: SPR, mAb captured by anti-hFc, 37C
T1 construct: The natural protein has a beta and an alpha chain; also called complement factor 5; complement component 5
recorded.metric: 100 nM Human C5 Bound (RU)
Answer format: numeric, RU implied, no suffix.

binder	numeric.value
H4H12167P (antibody, human IgG4, V domains shown) VH: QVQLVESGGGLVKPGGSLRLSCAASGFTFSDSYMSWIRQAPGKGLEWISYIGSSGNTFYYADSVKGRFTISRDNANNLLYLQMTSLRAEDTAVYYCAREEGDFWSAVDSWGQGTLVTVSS VL: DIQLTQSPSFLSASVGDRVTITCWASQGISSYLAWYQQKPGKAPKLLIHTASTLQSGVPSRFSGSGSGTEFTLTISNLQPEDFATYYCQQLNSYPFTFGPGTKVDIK	153

Exam item: Need 100 nM Human C5 Bound (RU), item H4H12159P (antibody, human IgG4, V domains shown) VH: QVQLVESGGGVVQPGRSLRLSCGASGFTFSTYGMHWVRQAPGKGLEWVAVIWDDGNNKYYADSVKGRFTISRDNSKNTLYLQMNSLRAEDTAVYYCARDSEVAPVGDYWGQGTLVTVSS VL: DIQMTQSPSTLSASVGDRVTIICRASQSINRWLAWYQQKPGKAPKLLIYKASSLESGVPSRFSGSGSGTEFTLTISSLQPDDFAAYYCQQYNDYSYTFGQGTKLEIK
Marked response: 145
